Test system: U251 CNS
Protocol description: NCI tumour cell line growth inhibition, 48 h
Recorded endpoint: log10(TGI) (log10 of the value in µM)
# values: log10(TGI), units µM

Molecule	log10(TGI)
COc1ccc2c(c1OC)OCC(CN(C)C)C2=O (centres undefined)	1.53
C[C@H]1[C@H]2[C@H]3CC[C@@H]4[C@@]5(C)C/C(=C/c6cccnc6)C(=O)C(C)(C)[C@@H]5CC[C@@]4(C)[C@]3(C)CC[C@]23CO[C@]1(C)[C@@H](C(=O)/C=C\c1cccnc1)C3	0.32
C/C(=C(\c1ccc(OCCN2CCCCCC2)cc1)c1ccc(OC(=O)Cc2ccccc2)cc1)c1ccc(Cl)cc1	0.70
Cc1cn2c(/C=N/N=C(N)N)c(-c3cccnc3)nc2s1	1.37

Qu. U251 CNS / log10(TGI) / CN(C)CCCCN1c2ccccc2Sc2ccc(C(=O)c3ccccc3)cc21 : value?
Ans. 0.88

Qu. Form field: log10(TGI) recorded for CCOC(=O)/C(=C(/C)NCC(C)C)c1cc(O)c(O)c2c(C)cc(=O)[nH]c12 with U251 CNS (enter value)
Ans. 1.71

Qu. Under U251 CNS: log10(TGI) value of CC1=C([Te]c2ccc(O)cc2)C(=O)c2ccccc2C1=O ?
Ans. 0.86

Qu. Quick check: log10(TGI) on U251 CNS, item Cl/C(=C\C=Nc1ccc(I)cc1)c1ccc2ccccc2c1 ?
Ans. 1.54

Qu. # get_value(readout= log10(TGI), system= U251 CNS) for O=C(/C(=C/c1ccc([N+](=O)[O-])cc1)SCc1ccc(F)cc1)c1ccc(Cl)cc1
Ans. 0.60

====

System: NCI-H522 lung
Protocol description: NCI tumour cell line growth inhibition, 48 h; in the data active means GI50 below about 0.43 µM; inactive means the rest
Choose one outcome from this list and give only that: active, inactive

Worked set:
Molecule	Category label
Cc1cc(Oc2ccc3nc(COc4ccc(CC5SC(=O)NC5=O)cc4)n(C)c3c2)cc(C)c1N (stereo unspecified)	inactive
c1ccc(CN=C(NCc2ccccc2)NCc2ccccc2)cc1	inactive
O=C(NN=C1CCCCC1)c1[nH]c2ccc(F)cc2c1-c1ccccc1	inactive
CCOC(=O)/C(=C(/C)NCC(C)C)c1cc(O)c(O)c2c(C)cc(=O)[nH]c12	inactive
CN1CC(CNC(=O)OCc2ccccc2)CC2c3cccc4c3c(cn4C)CC21 (stereo unspecified)	inactive
COc1ccc(-c2c(-c3cc(OC)c(OC)c(OC)c3)noc2N)cc1	active
CCC[CH2][Sn]1([CH2]CCC)[O]C(=O)c2ccc(C)cc2[O]1	active
C=CN(C)S(C)(=O)=O	inactive

Qu. What did the test return for S=C(N/N=C(/c1ccccc1)c1ccccn1)N1CCCCCC1 ?
Ans. inactive

Qu. # lookup: test call for CCc1ccc2c(c1)N(CCO)C1=C(C(=O)OC1)C2c1cccc(Cl)c1 (stereo unspecified)
Ans. active

Qu. Which outcome was assigned to O=C(/C(=C/c1ccc([N+](=O)[O-])cc1)SCc1ccc(F)cc1)c1ccc(Cl)cc1 in this test?
Ans. inactive

====

System: OVCAR-3 ovarian
Protocol description: NCI tumour cell line growth inhibition, 48 h; in the data active = GI50 below about 0.43 µM; inactive = the rest
Please state which outcome applies, choosing from active, inactive

These solved cases illustrate the format of a correct answer.
Molecule	Category label
O=C(Nc1nc2ccc(F)cc2s1)c1cccnc1Nc1ccc(Cl)cc1	inactive
COc1ccc(CNc2nc3cc(N)cc(N)c3nc2-c2ccccc2)cc1	inactive
COc1cc(-c2nn(-c3cccc(NC(=O)c4ccc(N5CCOCC5)c(C(F)(F)F)c4)c3)cc2-c2ccncc2)ccc1Cl	active

Qu. Please share the test call associated with CCCCCCc1nc2nc(Cl)c(Cl)nc2[nH]1 .
Ans. inactive

Qu. Tell me the assay call for Cc1ccc(-c2nc(N3CCCNCC3)c3oc(-c4ccccc4)nc3n2)cc1 please.
Ans. inactive

Qu. # outcome recorded in this test, key = CC/C(=C(/c1ccc(O)cc1)c1ccc(OCCN2CCCCC2)cc1)c1ccc(OC)cc1
Ans. inactive

Qu. Assay outcome for CN(C)CCOC(c1ccccc1)c1ccccc1 : what was it?
Ans. inactive

Qu. Can you look up the reported call for S=C(N/N=C(/c1ccccc1)c1ccccn1)N1CCCCCC1 for me?
Ans. active

Qu. Name the outcome recorded for Cc1cn2c(/C=N/N=C(N)N)c(-c3cccnc3)nc2s1 in the assay.
Ans. inactive
